So I've got a bunch of sequences here, and I need their PBM binding z-score values.
system: PPARg:RXRa 30nM:10nM, anti-RXR (NR concentration 30 nM, RXRa partner concentration 10 nM); assay: PBM binding z-score (relative to random genomic background probes); higher = stronger binding; sequences stand for … in GC…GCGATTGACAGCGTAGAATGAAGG
# answer = number (no unit)

Quick one: PBM binding z-score of `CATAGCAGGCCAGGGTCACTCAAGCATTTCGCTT` ?
0.29

Quick one: PBM binding z-score of `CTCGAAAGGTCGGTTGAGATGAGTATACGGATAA` ?
0.602

Quick one: PBM binding z-score of `CGAACTAGGTCAGAACAGGATAGTGAAGGATGAT` ?
1.75

Quick one: PBM binding z-score of `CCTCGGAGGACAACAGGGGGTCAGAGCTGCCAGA` ?
-0.264

Quick one: PBM binding z-score of `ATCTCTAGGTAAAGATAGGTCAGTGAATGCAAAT` ?
0.668

Quick one: PBM binding z-score of `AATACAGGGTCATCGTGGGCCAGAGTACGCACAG` ?
2.73

Quick one: PBM binding z-score of `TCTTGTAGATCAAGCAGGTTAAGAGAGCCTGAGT` ?
2.06

Quick one: PBM binding z-score of `AGAACGAGGGCAATGTGTTGATAGCACGGGTGGC` ?
0.0423

Quick one: PBM binding z-score of `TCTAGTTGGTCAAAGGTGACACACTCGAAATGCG` ?
8.19

Quick one: PBM binding z-score of `ACAGACAGGTGATGAAGGTACCTCAGGCTATCAT` ?
0.3

Quick one: PBM binding z-score of `CCCGACAGGTGAAAGGTAACTCAGTCTGGTACGC` ?
3.73

Quick one: PBM binding z-score of `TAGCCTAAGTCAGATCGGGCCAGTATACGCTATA` ?
-0.321

Quick one: PBM binding z-score of `AGTCAAAGTTCAGGACAAGGTAACGTAAAGCACG` ?
2.16

Quick one: PBM binding z-score of `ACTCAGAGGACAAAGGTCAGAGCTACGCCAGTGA` ?
5.13

Quick one: PBM binding z-score of `AGAATGAGGTTATTAAGACCAGGGAATTGCGGTC` ?
0.533

Quick one: PBM binding z-score of `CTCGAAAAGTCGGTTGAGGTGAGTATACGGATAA` ?
0.085

Quick one: PBM binding z-score of `CCGAGTAAGTTATGGGGCATTCAGGCAACGGTGA` ?
-0.496

Quick one: PBM binding z-score of `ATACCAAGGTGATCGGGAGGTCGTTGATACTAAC` ?
0.193

Quick one: PBM binding z-score of `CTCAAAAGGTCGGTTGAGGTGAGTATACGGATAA` ?
0.383

Quick one: PBM binding z-score of `CGTCCAAGGTCAGAGAGGTCAGTGCATGCCGAGT` ?
0.807

Quick one: PBM binding z-score of `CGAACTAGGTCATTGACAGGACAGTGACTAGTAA` ?
3.43

Quick one: PBM binding z-score of `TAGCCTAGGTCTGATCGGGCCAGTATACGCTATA` ?
-0.329

Quick one: PBM binding z-score of `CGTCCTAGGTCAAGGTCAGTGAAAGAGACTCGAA` ?
1.48

Quick one: PBM binding z-score of `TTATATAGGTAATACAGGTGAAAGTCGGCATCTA` ?
2.07

---

test system: PPARg:RXRa 90nM:30nM, anti-RXR (NR concentration 90 nM, RXRa partner concentration 30 nM); test: PBM binding z-score (relative to random genomic background probes); higher = stronger binding; sequences stand for … in GC…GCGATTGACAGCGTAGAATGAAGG
Cut-off 1 on PBM binding z-score, inclusive. At or above means rule met; below means rule not met.

Is reported PBM binding z-score greater than or equal to 1 here: `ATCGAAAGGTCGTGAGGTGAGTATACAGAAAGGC`
rule met

Is reported PBM binding z-score greater than or equal to 1 here: `ATCGAAAGGTCGAAGGTGAGTATACCCACCCGAA`
rule met

Is reported PBM binding z-score greater than or equal to 1 here: `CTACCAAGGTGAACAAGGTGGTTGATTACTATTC`
rule not met

Is reported PBM binding z-score greater than or equal to 1 here: `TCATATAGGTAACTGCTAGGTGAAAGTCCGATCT`
rule met

Is reported PBM binding z-score greater than or equal to 1 here: `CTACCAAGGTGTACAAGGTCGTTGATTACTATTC`
rule not met

Is reported PBM binding z-score greater than or equal to 1 here: `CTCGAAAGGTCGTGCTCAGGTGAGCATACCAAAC`
rule met

Is reported PBM binding z-score greater than or equal to 1 here: `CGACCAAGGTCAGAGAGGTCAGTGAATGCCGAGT`
rule met

Is reported PBM binding z-score greater than or equal to 1 here: `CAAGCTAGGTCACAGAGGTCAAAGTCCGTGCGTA`
rule met

Is reported PBM binding z-score greater than or equal to 1 here: `TCAGACAGGTGTAGGTAACTCAGGTACGCAGTCG`
rule met

Is reported PBM binding z-score greater than or equal to 1 here: `TGAATGAGGTTATAAGACCAGGGAACGTTGCAAA`
rule met

Is reported PBM binding z-score greater than or equal to 1 here: `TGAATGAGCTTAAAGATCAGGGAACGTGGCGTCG`
rule not met

Is reported PBM binding z-score greater than or equal to 1 here: `TGAATGAGGTTAAAGATCAGCGAACGTGGCGTCG`
rule met

Is reported PBM binding z-score greater than or equal to 1 here: `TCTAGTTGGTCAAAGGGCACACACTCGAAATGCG`
rule met

Is reported PBM binding z-score greater than or equal to 1 here: `TCGAGTAGGTTATTCGGGGCATTCAGCCAACATA`
rule met

Is reported PBM binding z-score greater than or equal to 1 here: `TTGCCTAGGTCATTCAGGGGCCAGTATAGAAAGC`
rule met

Is reported PBM binding z-score greater than or equal to 1 here: `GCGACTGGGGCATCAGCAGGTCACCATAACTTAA`
rule met

Is reported PBM binding z-score greater than or equal to 1 here: `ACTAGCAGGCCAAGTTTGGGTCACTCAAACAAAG`
rule not met

Is reported PBM binding z-score greater than or equal to 1 here: `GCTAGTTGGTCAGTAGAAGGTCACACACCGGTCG`
rule met

Is reported PBM binding z-score greater than or equal to 1 here: `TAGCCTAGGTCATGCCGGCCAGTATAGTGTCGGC`
rule met

Is reported PBM binding z-score greater than or equal to 1 here: `TAGCCCAGGTCATGGGCCAGTATACCACGCGAAC`
rule met

Is reported PBM binding z-score greater than or equal to 1 here: `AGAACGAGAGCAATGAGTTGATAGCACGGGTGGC`
rule not met

Is reported PBM binding z-score greater than or equal to 1 here: `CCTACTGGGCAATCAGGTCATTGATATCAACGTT`
rule met

Is reported PBM binding z-score greater than or equal to 1 here: `CGTCAAAGTCCAACTAAGGTAACGTAAAGCACGC`
rule not met

Is reported PBM binding z-score greater than or equal to 1 here: `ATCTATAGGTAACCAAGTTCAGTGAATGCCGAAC`
rule not met

Is reported PBM binding z-score greater than or equal to 1 here: `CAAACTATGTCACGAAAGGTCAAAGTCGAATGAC`
rule met

Is reported PBM binding z-score greater than or equal to 1 here: `AGAACGAGGGCACGCTGAATTGATAGCAGAGTAG`
rule met

Is reported PBM binding z-score greater than or equal to 1 here: `GGAACGAGTGCAAAGTTGATAGCATCTGTCGACG`
rule met

Is reported PBM binding z-score greater than or equal to 1 here: `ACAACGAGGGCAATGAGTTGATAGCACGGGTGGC`
rule not met

Is reported PBM binding z-score greater than or equal to 1 here: `GGAACGAGGGCATTCGCGTTGATAGCATGGCGAT`
rule not met

Is reported PBM binding z-score greater than or equal to 1 here: `CGAACTAGATCATCCAGGACAGTGAATACATTGA`
rule not met

Is reported PBM binding z-score greater than or equal to 1 here: `GCTAGATGGTCAGTAAAAGGTCACACACCGGTCG`
rule met

---

tested on: VDR homodimer (NR concentration 270 nM); assay: PBM binding z-score (relative to random genomic background probes); higher = stronger binding; sequences stand for … in GC…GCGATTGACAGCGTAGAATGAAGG
Cut-off 0.5 on PBM binding z-score, inclusive. At or above means Satisfied; below means Not satisfied.

Is reported PBM binding z-score greater than or equal to 0.5 here: `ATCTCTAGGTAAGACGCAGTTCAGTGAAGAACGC`
Satisfied

Is reported PBM binding z-score greater than or equal to 0.5 here: `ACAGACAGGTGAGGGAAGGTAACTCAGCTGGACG`
Not satisfied

Is reported PBM binding z-score greater than or equal to 0.5 here: `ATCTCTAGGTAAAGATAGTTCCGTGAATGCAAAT`
Not satisfied

Is reported PBM binding z-score greater than or equal to 0.5 here: `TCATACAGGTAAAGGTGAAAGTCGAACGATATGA`
Not satisfied

Is reported PBM binding z-score greater than or equal to 0.5 here: `CATCGGAGGACAACAGGAGGTCAGAGCTGCCAGA`
Satisfied

Is reported PBM binding z-score greater than or equal to 0.5 here: `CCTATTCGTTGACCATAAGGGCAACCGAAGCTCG`
Satisfied

Is reported PBM binding z-score greater than or equal to 0.5 here: `TGTCAAAGTTCAAAGGTAATGTAAGTATCCACAC`
Satisfied

Is reported PBM binding z-score greater than or equal to 0.5 here: `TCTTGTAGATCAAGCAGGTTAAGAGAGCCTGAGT`
Not satisfied
